System: HeLa cells
assay.protocol: Compound screen by flow cytometry: HeLa cell count as surrogate readout of cell viability (z-scoreHeLa)
Assay type: cell-based, human
test.settings: PKIS compound screen raw data, HeLa cell count, replicate 2
Overview of reported cell count rep 2 across a group of compounds:
property.label: cell count rep 2

compound: Cc1cccc(-c2nc(Nc3cccc(C(N)=O)c3)c3ccccc3n2)n1 [GW876019X]
target.entity: HeLa cells
property.label: cell count rep 2
measured.value: 10617

compound: COc1cccc(CC(=O)N2CCc3cc(-c4cn(C)c5ncnc(N)c45)ccc32)c1 [GSK2608899A]
target.entity: HeLa cells
property.label: cell count rep 2
measured.value: 2695

compound: COC(=O)c1cccc(NC(=O)NC2CCN(c3ccnc(NCc4ccc(F)cc4)n3)CC2)c1 [GSK1379860A]
target.entity: HeLa cells
property.label: cell count rep 2
measured.value: 10320

compound: Cn1cc(-c2ccc3c(c2)CCN3C(=O)Cc2cc(F)cc(F)c2F)c2c(N)ncnc21 [GSK2634140A]
target.entity: HeLa cells
property.label: cell count rep 2
measured.value: 2548

compound: Cc1c(Cn2ccn3c(=O)cc(N4CCOCC4)nc23)cccc1C(F)(F)F [GSK2289044B]
target.entity: HeLa cells
property.label: cell count rep 2
measured.value: 26653

compound: CC(C)(C)c1ccc2nccc(Nc3cccc(O)c3)c2c1 [GW856795X]
target.entity: HeLa cells
property.label: cell count rep 2
measured.value: 26624

compound: Nc1nccc2scc(-c3ccc4c(c3)CCN4C(=O)Cc3ccccc3)c12 [GSK2576924A]
target.entity: HeLa cells
property.label: cell count rep 2
measured.value: 3066

compound: CC(=O)N1CCN(c2ccc(Nc3nccc(-c4sc(C(C)C)nc4-c4cccc(NS(=O)(=O)c5cccc(Cl)c5)c4)n3)cn2)CC1 [GSK1660437A]
target.entity: HeLa cells
property.label: cell count rep 2
measured.value: 3506

* * *

Test system: HeLa cells
assay.protocol: Compound screen by flow cytometry: HeLa cell count as surrogate readout of cell viability (z-scoreHeLa)
Assay type: cell-based, human
test.settings: PKIS compound screen raw data, HeLa cell count, replicate 3

compound: CS(=O)(=O)CCNCc1ccc(-c2ccc3ncnc(Nc4ccc(OCc5ccccc5)c(Cl)c4)c3c2)o1 [GW574783B]
cell count rep 3: 50424

compound: COc1ccc(S(=O)(=O)NC2CCN(c3cc(C)nc(Nc4cccc(C#N)c4)n3)CC2)cc1 [GSK1653539A]
cell count rep 3: 16886

compound: Cc1cccc(-c2nc(Nc3cccc(C(N)=O)c3)c3ccccc3n2)n1 [GW876019X]
cell count rep 3: 8442

compound: CCS(=O)(=O)c1ccc(OC)c(Nc2ncc(-c3cccc(-c4ccccc4F)c3)o2)c1 [GW678313X]
cell count rep 3: 48427

* * *

Tested on: intracellular MRSA
Assay type: cell-based, Staphylococcus aureus
test.settings: PKIS compound screen, replicate 3
Output schema: class label derived from z-scoreMRSA+ rep 3. Mapping: bin 0 (below -0.4), bin 1 (-0.4 to below 0.3), bin 2 (0.3 or more)

molecule: O=C(c1ccc(-c2cc(-c3c[nH]nc3-c3ccccn3)ccn2)cc1)N1CCOCC1 [GW812171X]
cat: bin 1
//
molecule: CCCNC(=O)Nc1ccc(N(C)c2ccnc(NC3CC3)n2)cc1 [GW818933X]
cat: bin 1
//
molecule: COc1ccc(CNC(=O)NC2CCN(c3ccnc(Nc4ccc(OC)cc4)n3)C2)cc1 (stereo not shown) [GSK1379727A]
cat: bin 2
//
molecule: COc1cc(Nc2ncc3c(C)nc(-c4cc5ccccc5[nH]4)n3n2)cc(OC)c1OC [GW869516X]
cat: bin 0
//
molecule: COc1cc(Nc2nccc(N3CCC(NC(=O)C(C)c4ccc(Cl)cc4)C3)n2)cc(OC)c1OC (stereo not shown) [GSK1379757A]
cat: bin 2
//
molecule: CC(C)c1nc(-c2cccc(NS(=O)(=O)c3c(F)cccc3F)c2F)c(-c2ccnc(Nc3ccc(N4CCOCC4)nc3)n2)s1 [GSK2008607A]
cat: bin 0
//
molecule: NS(=O)(=O)c1ccc(N/N=C2\C(=O)Nc3ccc(Cl)cc32)cc1 [GW280670X]
cat: bin 2
//
molecule: Cc1nnc(-c2ccc(C)c(-c3ccc(C(=O)NCc4ccc(Cl)cc4)cc3)c2)o1 [GW708893X]
cat: bin 1
//
molecule: COc1cc(/C=N/Nc2ncnc3[nH]ncc23)ccc1O [GW578748X]
cat: bin 0
//
molecule: Cc1cc(NCC(c2ccccc2)c2ccccc2)nc(NCc2ccc(C(F)(F)F)cc2)n1 [GW497681X]
cat: bin 0
//
molecule: Cc1cccc(-c2nc(Nc3ccc4ncsc4c3)c3ccccc3n2)n1 [GW867588X]
cat: bin 1
//
molecule: CN(C)S(=O)(=O)c1cc(-c2ccc3nccc(-c4cccc(S(N)(=O)=O)c4)c3c2)cnc1N [GSK1669921A]
cat: bin 0
//
molecule: Cc1ccc(S(=O)(=O)Nc2ccc(Nc3nccc(Nc4cccc5[nH]ncc45)n3)cc2)cc1 [GSK581271A]
cat: bin 1
//
molecule: COc1cccc(C2=C(Nc3ccc(Cl)c(C(=O)O)c3)C(=O)NC2=O)c1
cat: bin 2
//
molecule: O=C(Nc1n[nH]c2nc(-c3ccccc3)c(Br)cc12)C1CC1
cat: bin 2
//
molecule: Cc1cc(Cl)cc2c1NC(=O)C2=NNc1ccc(S(N)(=O)=O)cc1 [GW279320X]
cat: bin 2
//
molecule: O=C(Nc1ccccc1F)NC1CCN(c2ccnc(Nc3ccc(F)cc3)n2)C1 (stereo not shown) [GSK1379722A]
cat: bin 2
//
molecule: Cc1ccc(NC(=O)Nc2ccccc2)cc1-c1ccc(C(=O)Nc2ccncc2)cc1 [GSK1398471A]
cat: bin 2
//
molecule: [O-][S+]1CCN(Cc2ccc(-c3ccc4ncnc(Nc5ccc(OCc6ccccc6)c(Cl)c5)c4c3)o2)CC1 [GW583373A]
cat: bin 0
//
molecule: Cc1cn2c(=O)cc(N3CCOCC3)nc2n1Cc1cccc(Cl)c1Cl [GSK2334006A]
cat: bin 1
//
molecule: CN(C)c1cc2c(Nc3ccc4nc(Cc5ccccc5)[nH]c4c3)ncnc2cn1 [GW301888X]
cat: bin 1
//
molecule: N#Cc1ccc(CCNc2nccc(-c3cccc(CN4CCNCC4)c3)n2)cc1 [GSK2137462A]
cat: bin 1
//
molecule: c1ccc(Cc2nc3ccc(Nc4ncnc5ccccc45)cc3[nH]2)cc1 [GR269666A]
cat: bin 0
//
molecule: COC(=O)c1ccc2c(c1)C(=Cc1cc(Br)c(O)c(Br)c1)C(=O)N2 [GW405841X]
cat: bin 0
//
molecule: O=C(Nc1ccccc1F)NC1CCN(c2ccnc(Nc3ccc(F)cc3)n2)CC1 [GSK1379800A]
cat: bin 2
//
molecule: O=S(=O)(CCNCc1ccc(-c2ccc3ncnc(Nc4ccc(OCc5cccc(F)c5)c(Cl)c4)c3c2)o1)c1ccccc1 [GW633459A]
cat: bin 0
//
molecule: CN(C)c1cc2c(Nc3ccc4c(cnn4Cc4ccccc4)c3)ncnc2cn1 [GW282974X]
cat: bin 0
//
molecule: c1ccc(-c2ccc3c(Nc4ccc5[nH]ccc5c4)ccnc3c2)nc1 [GW440138A]
cat: bin 2
//
molecule: COc1cc(N2CCN(C(C)C)CC2)ccc1Nc1nc(Nc2ccc(F)cc2C(N)=O)c2cc[nH]c2n1 [GSK1220512A]
cat: bin 2
//
molecule: COc1ccc(Nc2nccc(N3CCC(NC(=O)Nc4cccc(C(C)=O)c4)C3)n2)cc1 (stereo not shown) [GSK1379731A]
cat: bin 1
//
molecule: COc1cccc(-n2ncc3c(N/N=C/c4ccncc4)ncnc32)c1 [GW784752X]
cat: bin 0
//
molecule: Cn1cc(-c2ccc3c(c2)CCN3C(=O)Cc2ccccc2Cl)c2c(N)ncnc21 [GSK2608885A]
cat: bin 2

* * *

System: intracellular MRSA
Type: cell-based, Staphylococcus aureus
test.settings: PKIS compound screen, Yes/No call
Procedure: The cells were resuspended in cell culture medium without antibiotics, seeded with 10,000 cells/well into Costar flat-bottom 96-well plates (Corning, Amsterdam, the Netherlands), and were incubated overnight at 37°C/5% CO2. […] The calculated mean MOI throughout all experiments was 6.8 ± 4.6 (mean ± SD). […] HeLa cells were harvested by trypsinization and fixed with 1% paraformaldehyde. Samples were measured on a FACSLyric with HTS extension (BD Biosciences). […]

compound: CC(C)c1nc(-c2cccc(NS(=O)(=O)c3ccccc3)c2)c(-c2ccnc(Nc3ccc4c(c3)CN(C)CC4)n2)s1 [GSK1649598A]
effect: No

compound: Cc1nn2c(=O)cc(N3CCOCC3)nc2n1Cc1cccc(Cl)c1Cl [GSK2342769A]
effect: No

compound: c1ccc(COc2ccc(Nc3ncnc4ccc(-c5ccco5)cc34)cc2)cc1 [GW284372X]
effect: No

compound: CCCN(CCS(C)(=O)=O)Cc1ccc(-c2ccc3ncnc(Nc4ccc(OCc5cccc(F)c5)c(Cl)c4)c3c2)o1 [GW621823A]
effect: Yes

* * *

Tested on: HeLa cells
assay.protocol: Compound screen by flow cytometry: HeLa cell count as surrogate readout of cell viability (z-scoreHeLa)
Format: cell-based, human
test.settings: compound screen, HeLa cell count, mean of 3 replicates
Experimental: The cells were resuspended in cell culture medium without antibiotics, seeded with 10,000 cells/well into Costar flat-bottom 96-well plates (Corning, Amsterdam, the Netherlands), and were incubated overnight at 37°C/5% CO2. […] The calculated mean MOI throughout all experiments was 6.8 ± 4.6 (mean ± SD). […] HeLa cells were harvested by trypsinization and fixed with 1% paraformaldehyde. Samples were measured on a FACSLyric with HTS extension (BD Biosciences). […]
Output schema: class label derived from z-scoreHeLa mean. Mapping: lower segment (below -0.3), middle segment (-0.3 to below 0.8), upper segment (0.8 or more)

molecule: c1ccc(-c2n[nH]cc2-c2ccnc(-c3ccc(CNC4CCOCC4)cc3)c2)nc1 [GW709213X]
cat: middle segment
--
molecule: CN(c1ccc(NC(=O)Nc2cccc(Cl)c2)cc1)c1ccnc(N)n1 [GW830707A]
cat: lower segment
--
molecule: Cc1cc(N2CCC(NS(=O)(=O)c3ccc(F)cc3)CC2)nc(Nc2cccc(C#N)c2)n1 [GSK1653537A]
cat: middle segment
--
molecule: O=C(Nc1n[nH]c2cc(-c3ccsc3)ccc12)C1CC1
cat: upper segment
--
molecule: Fc1cc(Cl)ccc1Nc1ccnc2cc(I)ccc12 [GW551191X]
cat: upper segment
--
molecule: CS(=O)(=O)CCNCc1ccc(-c2ccc3ncnc(Nc4ccc(OCc5ccccc5)c(Br)c4)c3c2)o1 [GW580496A]
cat: upper segment
--
molecule: O=C(Nc1n[nH]c2cc(-c3cccc(F)c3F)ccc12)C1CC1
cat: middle segment
--
molecule: Cc1cccc2c1NC(=O)C2=NNc1ccc(S(N)(=O)=O)cc1 [GW282536X]
cat: lower segment
--
molecule: Cc1nnc(-c2ccc(C)c(-c3ccc(C(=O)Nc4ccc(NS(C)(=O)=O)cc4)cc3)c2)o1 [GW702865X]
cat: lower segment
--
molecule: Cc1cc(N2Cc3ccccc3C2)nc(Nc2ccc(S(=O)(=O)N3CCOCC3)cc2)n1 [GSK1669917A]
cat: middle segment
--
molecule: CS(=O)(=O)CCNCc1nc(-c2ccc3ncnc(Nc4ccc(F)c(Cl)c4)c3c2)cs1 [GW461104A]
cat: lower segment
--
molecule: Fc1cccc(COc2ccc(Nc3ncnc4sc(-c5ccc[nH]5)cc34)cc2Cl)c1 [GW707818B]
cat: upper segment
--
molecule: Cc1cccc(-c2nc(Nc3ccncc3)c3ccccc3n2)n1 [GW855857X]
cat: lower segment
--
molecule: N#Cc1ccc(CCNc2nccc(-c3cccc(CN4CCNCC4)c3)n2)cc1 [GSK2137462A]
cat: upper segment
--
molecule: CS(=O)(=O)Nc1ccc(N/C=C2\C(=O)Nc3ccccc32)cc1 [GW278681X]
cat: middle segment
--
molecule: Cc1c2ccc(N(C)c3ccnc(Nc4cccc(S(N)(=O)=O)c4)n3)cc2nn1Cc1ccccc1 [GW787226A]
cat: lower segment
--
molecule: Cc1cccc(-c2nc(Nc3ccc4c(cnn4C)c3)c3ccccc3n2)n1 [GW876731X]
cat: middle segment
